Measured pIC50, listed per entry.
Test system: A2058 melanoma cell line
Test: Effect of anti-melanoma chemotherapy on viability (IC50) of in vitro growing A2058
Type: cell-based, human
Settings: Homo sapiens
pIC50: −log10 of the molar value.
metricName: pIC50

- COc1cccc2c1C(=O)c1c(O)c3c(c(O)c1C2=O)C[C@@](O)(C(C)=O)C[C@@H]3O[C@H]1C[C@H](N)[C@H](O)[C@H](C)O1: 5.62
- CC[C@]1(O)C[C@H]2CN(CCc3c([nH]c4ccccc34)[C@@](C(=O)OC)(c3cc4c(cc3OC)N(C=O)[C@H]3[C@@](O)(C(=O)OC)[C@H](OC(C)=O)[C@]5(CC)C=CCN6CC[C@]43[C@@H]65)C2)C1: 5.21
- CC[C@]1(O)C[C@@H]2CN(CCc3c([nH]c4ccccc34)[C@@](C(=O)OC)(c3cc4c(cc3OC)N(C)[C@H]3[C@@](O)(C(=O)OC)[C@H](OC(C)=O)[C@]5(CC)C=CCN6CC[C@]43[C@@H]65)C2)C1: 5.12

====

Assay: Pter and metabolite levels in plasma, tumor, brain and pituitary after i.v. administration (LC-MS/MS)
Assay type: in vivo, mice
Details: female, nu/nu nude, mouse, tumor (B16-F1), iv, 30 mg/kg, B16-F1 tumors; Pter 30 mg/kg i.v.; read-out: half-life in the tumors
metricName: half-life (min)

• COc1cc(/C=C/c2ccc(O)cc2)cc(OC)c1 [Pter, trans-3,5-dimethoxy-4′-hydroxystilbene] = 29.3

====

Tested on: MeWo melanoma cell line
Test: Effect of anti-melanoma chemotherapy on viability (IC50) of in vitro growing MeWo
Assay type: cell-based, human
metricName: IC50 (µM)

• N.N.[Cl][Pt][Cl] [Cisplatin] = 44.3

====

Assay: Pter and metabolite levels in plasma, tumor, brain and pituitary after i.v. administration (LC-MS/MS)
Assay type: in vivo, mice
Settings: female, nu/nu nude, mouse, tumor, iv, 30 mg/kg; at 180 min after i.v. 30 mg Pter/kg; read-out: lowest concentration in tumors
metricName: concentration at 180 min

* COc1cc(/C=C/c2ccc(O)cc2)cc(OC)c1 [Pter, trans-3,5-dimethoxy-4′-hydroxystilbene] | ~1000 nM

====

Measured pIC50, listed per entry.
Tested on: MeWo melanoma cell line
Experiment: Effect of anti-melanoma chemotherapy on viability (IC50) of in vitro growing MeWo
Assay type: cell-based, human
Details: Homo sapiens
pIC50: −log10 of the molar value.
metricName: pIC50

- CC[C@]1(O)C[C@@H]2CN(CCc3c([nH]c4ccccc34)[C@@](C(=O)OC)(c3cc4c(cc3OC)N(C)[C@H]3[C@@](O)(C(=O)OC)[C@H](OC(C)=O)[C@]5(CC)C=CCN6CC[C@]43[C@@H]65)C2)C1: 4.84
- CC[C@]1(O)C[C@H]2CN(CCc3c([nH]c4ccccc34)[C@@](C(=O)OC)(c3cc4c(cc3OC)N(C=O)[C@H]3[C@@](O)(C(=O)OC)[C@H](OC(C)=O)[C@]5(CC)C=CCN6CC[C@]43[C@@H]65)C2)C1: 4.90
- COc1cccc2c1C(=O)c1c(O)c3c(c(O)c1C2=O)C[C@@](O)(C(C)=O)C[C@@H]3O[C@H]1C[C@H](N)[C@H](O)[C@H](C)O1: 5.58
- CC(=O)O[C@H]1C(=O)[C@@]2(C)[C@H]([C@H](OC(=O)c3ccccc3)[C@]3(O)C[C@H](OC(=O)[C@H](O)[C@@H](NC(=O)c4ccccc4)c4ccccc4)C(C)=C1C3(C)C)[C@]1(OC(C)=O)CO[C@@H]1C[C@@H]2O: 4.95
